# Test system: K4 kissing-loop RNA reporter;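 also: bound reporter read as fluorescence of individual clusters on recovered sequencing chips by microscopy, with normalized cluster intensities fitted with a binding model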
# assay-method-text: apparent KD of K4 kissing-loop reporter; higher = weaker reporter binding
# condition-label: Eterna round: R107; input ligand: theophylline 20 uM
metric: apparent KD of K4 kissing-loop reporter

Report apparent KD of K4 kissing-loop reporter for AAGUUUUAUAAACUCAUGGUUUCGUCAGAUACCAGCCUCGAGAGAGGCCCUUGGCAGCUGCAUGAGUGAUGUUCAUGUUCGAAGA [KL_XTheoA8]
239 nM

Indicate the recorded apparent KD of K4 kissing-loop reporter value for this sequence: UUUGGAGAGGGAAGGAGCGUGAAAGAGAAAGAAUAUAGUGAUGUUAUAUAGAAGAAAGAAUCACAGGUAGGUCGCCCGGAGGAGG [SSArgB.D]
990 nM

Give apparent KD of K4 kissing-loop reporter for CCUAUCUCAUACGAUACCAGUCCGAGUGAUGUUCGAACAUAAAUUAGUUUGCCAUAUAAUGACCCUUGGCAGCGUAUGGGAUAGG [Ex Theophylline B K4 12]
623 nM

More entries:
Recall and state the measured apparent KD of K4 kissing-loop reporter for CGUUUAUAGCAGGAUACCAGUACCCAUUAAGUACGUUAAUAGUAGAGUGAUGUUCUAAAGUACCCUUGGCAGCUUCCCGUGACCC [ExTheophylB.X] .
176 nM

Fill in apparent KD of K4 kissing-loop reporter for record UGGGAUGUUAAAGGAUAUAGCAGAUGAUACAAGAAAGUGAGUGAUGUUUAUGUAGAUGAUGAUAUGUUAGAAGGUUAACAAAACG [abcdefghijk]
715 nM

State its apparent KD of K4 kissing-loop reporter: UGAUACCAGACUGAUACCAGCCAGUGAUGUUGGCUAAGCCAAAUAGGAGUCAAAGACUCCGGCCCUUGGCAGCAGUCUGGUAUCU [TheoBX 5 #SwitchBubble #StaticStem]
124 nM

Determine its reported apparent KD of K4 kissing-loop reporter: UCCUGCAAUCUGCCACGAAAGUGGGUUGAUACCAGAGUCGAAAGACUCCCUUGGCAGCGAGUGAUGUUCGUUGCAGGUGUUUAAA [MatMod 11 - Jieux - Exclusion - Theophylline A]
217 nM

# return recorded apparent KD of K4 kissing-loop reporter for input UAAGAGGACCACUACAAGAGUCCUCGAAUACGAGGACCGGUACGGCCGCCACUCGAUAACUUGUAGUGAUGUUGCAAGUAAGAAU [BrourdMod 2 - Jieux - Same State Tryptophan A]
97.4 nM

Please supply the value of reported apparent KD of K4 kissing-loop reporter for the item AUGCUUUUAAUAACACUAUAUACAGCUGAAGGAGCGACAAUAAAGUCAGGUAGGUCGCAGAAUAGAUGAGUGAUGUUCAUUUUUA [#05 K4 Arginine A Exclusion]
166 nM

Please look at this sequence and report its apparent KD of K4 kissing-loop reporter: AAUUUACAAUAAUCAUUUAAAGGAUCAGAAGGAGCGUGUUAUAACACAGGUAGGUCGCUGAGCGAGUGAUGUUCGCUAUAUACAA [JR_ExcArginiA_Sub002]
99.8 nM

Look up and report measured apparent KD of K4 kissing-loop reporter for this entry: UAAGAAUAAGUAGCAGUGAUGUUGCUACUACGAGGACCGGUACGGCCGCCACUCGAGCCGUACAAAGUAGCAACUAGUACGAAUA [(H1)-(H2)-(Trp1)-(Trp2)-(T)'-(H)'-(T)'']
246 nM
